- System: A498
- Protocol summary: NCI tumour cell line growth inhibition, 48 h
Activity calls are given as the source filed them. No stated cut-off is given here; in the data, active = GI50 up to about 1.1 µM and inactive = higher.
Allowed answers: active, inactive

Input: Record request — test call for O=C(N/C(=C\c1ccc(/C=C(\NC(=O)c2ccccc2)c2nc3cc(Cl)ccc3[nH]2)cc1)c1nc2cc(Cl)ccc2[nH]1)c1ccccc1
Output: inactive

Input: Record request — test call for COc1cc(Cn2c3c(c4cc(O)ccc42)C(=O)c2ccccc2C3=O)cc(OC)c1
Output: inactive

Input: Record request — test call for C/C(=C1/N=C(c2cc([N+](=O)[O-])ccc2Cl)N(C2=CC=C(Cl)CC2)C1=O)c1cc2ccccc2oc1=O
Output: inactive

Input: Record request — test call for O=Cc1ccc(-c2ccc(S(=O)(=O)O)cc2)o1
Output: inactive

Input: Record request — test call for c1ccc2c(c1)SCCC2NC1=NCCO1 (centres undefined)
Output: inactive

Input: Record request — test call for CCN(CC)CCCC(C)Nc1c2cc(OC)cc(C)c2nc2c(C)c(Cl)ccc12 (centres undefined)
Output: inactive

Input: Record request — test call for CN1c2ccccc2C2c3c(O)ccc(O)c3C=C([N+](=O)[O-])C21 (centres undefined)
Output: inactive

Input: Record request — test call for N#Cc1ccccc1NC(=O)C(O)C(O)C(O)C(O)C=O (centres undefined)
Output: inactive

Input: Record request — test call for COc1ccc(C(=O)c2c(C(C(=O)c3ccc(OC)cc3)C(=O)c3ccc(OC)cc3)n(C(=O)c3ccc(OC)cc3)c3ccccc23)cc1
Output: inactive

Input: Record request — test call for O=[N+]([O-])c1cc2c(c([N+](=O)[O-])c1)NCc1ccccc1O2
Output: inactive

Input: Record request — test call for CCC1C2Cc3ccc(O)cc3C1(CC)CCN2C (centres undefined)
Output: inactive

Input: Record request — test call for CCN(CCCl)c1cccc(NC(=O)c2ccc(C(=O)Nc3cccc(CN(C)C)c3)cc2)c1
Output: active

Input: Record request — test call for CC(=O)OCC1OC(n2c(C)c(C)c(C)c(C#N)c2=S)C(OC(C)=O)C(OC(C)=O)C1OC(C)=O (centres undefined)
Output: inactive

Input: Record request — test call for Cc1ccc(S(=O)(=O)O)cc1.c1cc2c(c(NC3=NCCN3)c1)CCCC2
Output: inactive

Input: Record request — test call for CCOC(=O)C(NC(=O)c1ccccc1)(Nc1ccc(S(=O)(=O)Nc2cc(C)nc(C)n2)cc1)C(F)(F)F (centres undefined)
Output: inactive

Input: Record request — test call for O=C1CC(c2ccccc2)NCN1 (centres undefined)
Output: inactive

Input: Record request — test call for Cc1oc2nc(N(C)C)nc(NN)c2c1C
Output: inactive

Input: Record request — test call for Cc1ccc([N+](=O)[O-])cc1S(=O)(=O)Nc1ccc(C2=NN(C(=O)c3ccccc3)C(c3cccs3)C2)cc1 (centres undefined)
Output: inactive

Input: Record request — test call for CC1(C)[C@@H]2C[C@H]1C(Cc1cccc(C[C@H]3c4cc(-c5ccccn5)ncc4[C@H]4C[C@@H]3C4(C)C)c1)c1cc(-c3ccccn3)ncc12 (some centres undefined)
Output: inactive
